B1: glmS ribozyme (parent)
chain: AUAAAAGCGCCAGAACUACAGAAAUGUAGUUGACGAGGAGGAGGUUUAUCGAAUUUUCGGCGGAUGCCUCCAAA

Variants of: B1
ASSAY_INFO: self-cleavage kobs at 2500 uM GlcN6P; higher = faster cleavage; RNA array
MEASUREMENT_PARAMETERS: with glucosamine-6-phosphate
Variants at the floor of the assay were thinned out.
Recorded self-cleavage kobs at 2500 uM GlcN6P by entry
READOUT: self-cleavage kobs at 2500 uM GlcN6P (s⁻¹)

| MUTANT_DESIGNATION | VALUE_QUALIFIER | MEASURED |
| --- | --- | --- |
| A33C G66A | = | 0.00013 |
| A42C U65C | < | 1e-05 |
| A14U A15U C16U | = | 5.74e-05 |
| U47C C61U | < | 1e-05 |
| A15G U69G | = | 0.00012 |
| A14G G44U A64U | < | 1e-05 |
| C8A G37A A42C | < | 1e-05 |
| C67U | = | 0.0117 |
| U49C C58A G60U | < | 1e-05 |
| G43C U46A A48C | < | 1e-05 |
| C8G G32A G59U | < | 1e-05 |
| U45C C71A | = | 0.000744 |
| A15C G32U A33C | < | 1e-05 |
| A14C C58A | = | 0.000102 |
| A39U A53U | = | 0.00619 |
| U54C U56A | = | 0.00483 |
| A12U A39C A52G | = | 8.04e-05 |
| U30A G37C U65C | < | 1e-05 |
| C10U A64G | = | 3.75e-05 |
| A6U G9A C68U | < | 1e-05 |
| G9U A14G U45A C67A | < | 1e-05 |
| G38C G41C | < | 1e-05 |
